experiment: Ocular tissue concentrations (aqueous humor, vitreous humor, iris, retina, choroid, cornea) after topical ocular, subcutaneous and intravitreal administration; assay type: in vivo, New Zealand White rabbits; conditions: New Zealand White, rabbit, vitreous humor, other: intravitreal, 2.5 mg per eye, Group 4 intravitreal 2.5 mg per eye; 24 hr; read-out: vitreous humor Conc., individual eyes (OD, OS)
Structures can show the parent of a compound that is named as a salt.
parameter: concentration at 24 h (µg/mL)
Answer format: numeric, µg/mL implied, no suffix.

Reported concentration at 24 h for COC(=O)N[C@@H](Cc1ccccc1)C(=O)N[C@@H](Cc1ccc(NS(=O)(=O)O)cc1)c1csc(-c2cccs2)n1 [Compound 1 sodium salt] : what is it?
438
